protocol-notes: Metabolic stability in human hepatic microsome
Format: in vitro ADME
condition-summary: microsomes, pH 7.4; human hepatic microsome, NADPH(+); read-out: CL NADPH(+)
Positions of bridges follow the written chain, without caps; N, C: chain ends. Non-standard residues stand in square brackets, D forms with d. Residues, ends and D or L forms follow the SMILES beside them. *: point of attachment. NMeF = CN[C@@H](Cc1ccccc1)C(=O)O; NMeI = CC[C@H](C)[C@H](NC)C(=O)O; NMeL = CN[C@@H](CC(C)C)C(=O)O; NMeV = CN[C@H](C(=O)O)C(C)C; NMeA = CN[C@@H](C)C(=O)O; Piperidide = C1CCN(*)CC1; dNMeA = CN[C@H](C)C(=O)O; Aze = O=C(O)[C@@H]1CCN1; β3hA = C[C@H](N)CC(=O)O; Sar = CNCC(=O)O; tBu = CC(C)(C)*
Give measured log10(microsomal CLint at 1 uM) for each item. Keep answers brief.
Hi team, quick reminder: these entries are log10 of microsomal CLint at 1 uM (µL/min/mg).

Below, 2 compounds whose answers are already recorded.
compound: CC[C@H](C)[C@H]1C(=O)N[C@H](C(=O)N2CCCCC2)CC(=O)N(C)[C@@H](C)C(=O)N(C)[C@@H](CC(C)C)C(=O)N(C)[C@@H](Cc2ccccc2)C(=O)N[C@@H]([C@@H](C)O)C(=O)N(C)CC(=O)N(C)[C@@H](CC(C)C)C(=O)N[C@@H](COC(C)(C)C)C(=O)N1C [DP-152] ([NMeA][NMeL][NMeF]T[Sar][NMeL]S(tBu)[NMeI]D-Piperidide; lactam N-9)
measurement-name: log10(microsomal CLint at 1 uM)
reported-result: 1.97
--
compound: CC(C)C[C@@H]1NC(=O)[C@H](CC(C)C)N(C)C(=O)C[C@@H](C(=O)N2CCCCC2)NC(=O)[C@H](CC(C)C)N(C)C(=O)[C@H](C)N(C)C(=O)[C@H]([C@@H](C)O)NC(=O)[C@H](CC(C)C)N(C)C(=O)[C@H](Cc2ccccc2)N(C)C(=O)[C@H](Cc2c[nH]cn2)NC(=O)[C@H](Cc2ccccc2)N(C)C(=O)[C@H](CC(C)C)N(C)C1=O [DP-906] ([NMeL]L[NMeL][NMeF]H[NMeF][NMeL]T[NMeA][NMeL]D-Piperidide; lactam N-11)
measurement-name: log10(microsomal CLint at 1 uM)
reported-result: 1.69

Below is a list of compounds. For each, state its recorded log10(microsomal CLint at 1 uM).
1. CC(C)C[C@H]1C(=O)N(C)[C@@H](Cc2ccccc2)C(=O)N(C)[C@@H](CC(C)C)C(=O)N[C@@H]([C@@H](C)O)C(=O)N(C)CC(=O)N[C@@H](COC(C)(C)C)C(=O)N(C)[C@@H](CC(C)C)C(=O)N[C@H](C(=O)N2CCCCC2)CC(=O)N1C [DP-689] ([NMeL][NMeF][NMeL]T[Sar]S(tBu)[NMeL]D-Piperidide; lactam N-8)
2. CC[C@H](C)[C@@H]1NC(=O)[C@H](CC(C)C)NC(=O)[C@H](C(C)C)NC(=O)[C@H](CC(C)C)N(C)C(=O)[C@H](CC(C)C)NC(=O)[C@H](Cc2ccccc2)NC(=O)[C@H]([C@@H](C)O)NC(=O)[C@H](CC(C)C)NC(=O)[C@H](Cc2ccccc2)NC(=O)[C@@H](C)N(C)C(=O)C[C@@H](C(=O)N2CCCCC2)NC1=O [DP-416] ([dNMeA]FLTFL[NMeL]VLID-Piperidide; lactam N-11)
3. CC[C@H](C)[C@H]1C(=O)N[C@@H](COC(C)(C)C)C(=O)N(C)[C@@H](C(C)C)C(=O)N[C@@H](C)CC(=O)N(C)[C@@H](CC(C)C)C(=O)N(C)[C@@H](Cc2ccccc2)C(=O)N[C@@H](CC(C)C)C(=O)N(C)[C@@H](CC(C)C)C(=O)N[C@@H]([C@@H](C)O)C(=O)N(C)CC(=O)N1C [DP-821] (cyclo(L[NMeL]T[Sar][NMeI]S(tBu)[NMeV][β3hA][NMeL][NMeF]))
4. CC(C)C[C@@H]1NC(=O)CN(C)C(=O)[C@H](CC(C)C)N(C)C(=O)[C@H]([C@@H](C)O)NC(=O)[C@H](CC(C)C)N(C)C(=O)[C@H](Cc2ccccc2)N(C)C(=O)[C@H](C(C)C)NC(=O)C[C@@H](C(=O)N2CCCCC2)NC1=O [DP-691] (V[NMeF][NMeL]T[NMeL][Sar]LD-Piperidide; lactam N-8)
5. CC[C@H](C)[C@H]1C(=O)NCC(=O)N(C)[C@@H](CC(C)C)C(=O)N[C@@H]([C@@H](C)O)C(=O)N2CCC[C@H]2C(=O)N[C@@H](Cc2ccccc2)C(=O)N[C@H](C(=O)N2CCCCC2)CC(=O)N2CC[C@H]2C(=O)N[C@@H](Cc2ccccc2)C(=O)N(C)[C@@H](CC(C)C)C(=O)N[C@@H](CC(C)C)C(=O)N1C [DP-550] ([Aze]F[NMeL]L[NMeI]G[NMeL]TPFD-Piperidide; lactam N-11)
6. CC[C@H](C)[C@@H]1NC(=O)[C@H](CC(C)C)N(C)C(=O)[C@H](Cc2ccccc2)NC(=O)[C@H]([C@@H](C)O)NC(=O)[C@H](CC(C)C)N(C)C(=O)[C@H](C(C)C)N(C)C(=O)[C@@H](C)N(C)C(=O)C[C@@H](C(=O)N2CCCCC2)NC(=O)[C@H](CC(C)C)NC(=O)[C@H](Cc2ccccc2)N(C)C1=O [DP-432] ([dNMeA][NMeV][NMeL]TF[NMeL]I[NMeF]LD-Piperidide; lactam N-10)

2.01
1.30
2.74
2.51
2.03
2.60

Below is a list of compounds. For each, state its recorded log10(microsomal CLint at 1 uM).
1. CC(C)C[C@@H]1NC(=O)[C@H](C)N(C)C(=O)[C@H]([C@@H](C)O)NC(=O)[C@H](Cc2ccccc2)N(C)C(=O)CNC(=O)[C@H](C(C)C)N(C)C(=O)[C@H](C(C)C)NC(=O)[C@H](C)N(C)C(=O)[C@H](Cc2ccccc2)NC(=O)[C@H](C)N(C)C(=O)[C@@H](C)N(C)C(=O)C[C@H](C)NC1=O [DP-753] (cyclo(F[NMeA]V[NMeV]G[NMeF]T[NMeA]L[β3hA][dNMeA][NMeA]))
2. CC(C)C[C@H]1C(=O)N[C@@H](COC(C)(C)C)C(=O)N[C@H](C(=O)N2CCCCC2)CC(=O)N(C)[C@H](C)C(=O)N(C)[C@@H](C)C(=O)N(C)[C@@H](Cc2ccccc2)C(=O)N(C)[C@@H](CC(C)C)C(=O)N[C@@H]([C@@H](C)O)C(=O)N(C)[C@@H](C)C(=O)N1C [DP-160] ([dNMeA][NMeA][NMeF][NMeL]T[NMeA][NMeL]S(tBu)D-Piperidide; lactam N-9)

[1.54, 1.83]
